pIC50 by entry:
measurement-target: TGF-beta receptor type-1 (Homo sapiens, UniProt P36897)
Sequence (P36897 whole entry, the tested form may be a part): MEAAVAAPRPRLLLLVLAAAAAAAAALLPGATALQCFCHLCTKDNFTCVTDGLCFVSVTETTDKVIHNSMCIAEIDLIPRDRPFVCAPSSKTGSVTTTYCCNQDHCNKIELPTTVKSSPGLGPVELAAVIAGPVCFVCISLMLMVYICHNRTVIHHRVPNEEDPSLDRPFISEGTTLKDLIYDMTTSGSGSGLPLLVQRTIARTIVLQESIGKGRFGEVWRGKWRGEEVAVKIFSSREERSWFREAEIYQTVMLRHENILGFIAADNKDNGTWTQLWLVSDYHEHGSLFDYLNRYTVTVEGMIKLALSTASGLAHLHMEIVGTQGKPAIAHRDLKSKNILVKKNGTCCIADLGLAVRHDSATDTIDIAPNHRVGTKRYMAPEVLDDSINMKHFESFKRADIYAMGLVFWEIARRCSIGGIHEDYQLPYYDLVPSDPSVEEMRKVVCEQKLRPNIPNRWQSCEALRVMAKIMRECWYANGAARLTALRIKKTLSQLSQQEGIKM
assay-notes: Inhibition of recombinant N-terminal GST tagged human ALK5 (200 to 503 residues) expressed in baculovirus expression system using FAM-NH2-KVLTQMGSPSIRCSS[PO4]VS peptide as substrate after 90 mins by LanthaScreen TR-FRET assay
Just so you know, pIC50 here is -log10 of the concentration in molar units; reply with that number alone.

Field: example entries. Status: answers known.
[
  {
    "compound": "CCc1cnc(-c2cc(Cl)ccc2F)cc1Nc1ccnc2cccc(OC)c12",
    "reported-measurement": 7.60
  },
  {
    "compound": "COc1cccc2nccc(Nc3ccnc(-c4nc(C)ccc4F)c3)c12",
    "reported-measurement": 7.40
  },
  {
    "compound": "Cc1ccc(F)c(-c2cc(Nc3ccnc4cn[nH]c34)c(C)cn2)n1",
    "reported-measurement": 8.60
  }
]

# pIC50 lookup, item `NC(=O)Cn1cc2nccc(Nc3ccnc(-c4cc(Cl)ccc4F)c3)c2n1`
7.90

# pIC50 lookup, item `Fc1ccc(Cl)cc1-c1cc(Nc2ccnc3cn[nH]c23)ccn1`
8.20

# pIC50 lookup, item `Cc1ccc(F)c(-c2cc(Nc3ccnc4cnn(C[C@@H](C)O)c34)c(C)cn2)n1`
8.10

# pIC50 lookup, item `CNC(=O)n1ncc2nccc(Nc3ccnc(-c4cc(Cl)ccc4F)c3)c21`
8.50

# pIC50 lookup, item `Fc1ccc(Cl)cc1-c1cc(Nc2ccnc3cn(CC4CCNCC4)nc23)ccn1`
7.00

====

measurement-target: TGF-beta receptor type-1 (Homo sapiens, UniProt P36897)
assay-notes: Inhibition of ALK5 (unknown origin) expressed in SBE-bla HEK293T cells assessed as decrease in TGFbeta1-induced Smad2/3 phosphorylation by beta lactamase reporter gene assay
Format: cell-based
EC50 by entry:

Field: example entries. Status: answers known.
[
  {
    "sample-smiles": "Cc1ccc(F)c(-c2cc(Nc3ccnc4cnn(CCO)c34)c(C)cn2)n1",
    "EC50": "0.02 µM"
  },
  {
    "sample-smiles": "CNC(=O)n1ncc2nccc(Nc3ccnc(-c4cc(F)ccc4F)c3)c21",
    "EC50": "0.02 µM"
  },
  {
    "sample-smiles": "Cc1cnc(-c2cc(Cl)ccc2F)cc1Nc1ccnc2cn[nH]c12",
    "EC50": "0.0316 µM"
  }
]

# EC50 lookup, item `NC(=O)Cn1ncc2nccc(Nc3ccnc(-c4cc(F)ccc4F)c3)c21`
0.2 µM

# EC50 lookup, item `Cc1cnc(-c2cc(Cl)ccc2F)cc1Nc1ccnc2cnn(CC(N)=O)c12`
0.02 µM

====

measurement-target: TGF-beta receptor type-1 (Homo sapiens, UniProt P36897)
assay-notes: Inhibition of ALK5 in human Calu6 cells assessed as reduction in Smad2/3 phosphorylation
Assay type: cell-based
measure: pEC50
Just so you know, pEC50 here is -log10 of the concentration in molar units; reply with that number alone.

Field: example entries. Status: answers known.
[
  {
    "compound": "CCNC(=O)n1ncc2nccc(Nc3ccnc(-c4cc(F)ccc4F)c3)c21",
    "reported-measurement": 6.80
  },
  {
    "compound": "CCn1cc2nccc(Nc3cc(-c4cc(C)ccc4F)ncc3C)c2n1",
    "reported-measurement": 6.80
  },
  {
    "compound": "Cc1ccc(F)c(-c2cc(Nc3ccnc4cn[nH]c34)c(C)cn2)n1",
    "reported-measurement": 7.50
  },
  {
    "compound": "NC(=O)Cn1cc2nccc(Nc3ccnc(-c4cc(F)ccc4F)c3)c2n1",
    "reported-measurement": 5.80
  },
  {
    "compound": "Cc1cnc(-c2cc(F)ccc2F)cc1Nc1ccnc2cn(CC(C)O)nc12 (stereo not given)",
    "reported-measurement": 6.80
  }
]

# pEC50 lookup, item `CNC(=O)n1ncc2nccc(Nc3ccnc(-c4cc(F)ccc4F)c3)c21`
6.90

# pEC50 lookup, item `Cc1cnc(-c2cc(F)ccc2F)cc1Nc1ccnc2cn[nH]c12`
7.50

# pEC50 lookup, item `CNC(=O)n1ncc2nccc(Nc3cc(-c4cc(F)ccc4F)ncc3C)c21`
7.70

# pEC50 lookup, item `Cc1cnc(-c2cc(Cl)ccc2F)cc1Nc1ccnc2cnn(CC(N)=O)c12`
7.50

# pEC50 lookup, item Cc1cnc(-c2cc(F)ccc2F)cc1Nc1ccnc2cnn(CC(C)O)c12 (stereo not given)
7.70

# pEC50 lookup, item `Cc1ccc(F)c(-c2cc(Nc3ccnc4cnn(C[C@@H](C)O)c34)c(C)cn2)n1`
6.30
